Molecular target: PL^pro (Severe acute respiratory syndrome coronavirus 2)
Value kind: IC50 (µM)
Reply with just the number (in µM).

Substance smiles	Value kind	Observed
COc1ccc2nc3cc(Cl)ccc3c(Nc3cc(CN4CCCC4)c(O)c(CN4CCCC4)c3)c2n1	IC50	1.86
COc1ccc2nc3cc(Cl)ccc3c(Nc3ccc(O)c(CN4CCCC4)c3)c2c1	IC50	2.56
COc1ccc2nc3cc(Cl)ccc3c(Nc3cc(CN(C)C)c(O)c(CN(C)C)c3)c2c1	IC50	3.28

Request: Consider the compound COc1ccc2nc3cc(Cl)ccc3c(Nc3cc(CN4CCCC4)c(O)c(CN4CCCC4)c3)c2c1 . State its measured IC50.
Result: 2.44

----------
This section presents compounds with their documented IC50 values.
Target: PL^pro (Severe acute respiratory syndrome coronavirus 2, UniProt P0DTD1)

Substance smiles	IC50
COc1ccc2nc3cc(Cl)ccc3c(Nc3ccc(O)cc3)c2c1	> 20 µM
N#Cc1c(N2CCOCC2)ncc2c(=O)c3ccccc3[nH]c12	> 20 µM
COc1ccc2nc3cc(Cl)ccc3c(N3CCOCC3)c2c1	> 20 µM

Request: Consider the compound COc1ccc2nc3cc(Cl)ccc3c(O)c2c1 . State its measured IC50.
Result: > 20 µM

Request: Consider the compound N#Cc1c(N2CCOCC2)ncc2cc3ccccc3nc12 . State its measured IC50.
Result: > 20 µM
